Tested on: Mycobacterium tuberculosis
Test: Antimycobacterial activity against Mycobacterium tuberculosis H37Rv expressing luciferase assessed as growth inhibition after 6 days by luminometry
Format: functional
Conditions: 144 h
Labelling field: enter fulfilled if recorded MIC99 is less than 7 µM. Enter not fulfilled if it equals or exceeds that cut-off.

INSERT INTO results (molecule, class_label) VALUES
  ('CC1CCc2c(ncc3c2C(=O)c2ccccc2C3=O)C1 (configuration not stated)', 'fulfilled'),
  ('Cc1nc2c(c3c1C(=O)c1ccccc1C3=O)CCCC2', 'not fulfilled'),
  ('NNC(=O)c1ccncc1', 'fulfilled'),
  ('CC1CCc2ncc3c(c2C1)C(=O)c1ccccc1C3=O (configuration not stated)', 'not fulfilled'),
  ('O=C1c2ccccc2C(=O)c2c1cnc1c2CCCC1', 'not fulfilled'),
  ('CCOC(=O)C1CCc2ncc3c(c2C1)C(=O)C1=C(C3=O)C2CCC1CC2 (configuration not stated)', 'fulfilled'),
  ('CCOC(=O)C1CCc2ncc3c(c2C1)C(=O)C1=C(C3=O)C2CCC1C2 (configuration not stated)', 'fulfilled'),
  ('CC1CCCc2c1ncc1c2C(=O)c2ccccc2C1=O (configuration not stated)', 'not fulfilled'),
  ('Cc1nc2c(c3c1C(=O)c1ccccc1C3=O)CCCC2C (configuration not stated)', 'not fulfilled'),
  ('CC(C)(C)C1CCc2ncc3c(c2C1)C(=O)C1=C(C3=O)C2CCC1C2 (configuration not stated)', 'fulfilled'),
  ('CC(C)(C)C1CCc2ncc3c(c2C1)C(=O)c1ccccc1C3=O (configuration not stated)', 'not fulfilled');

* * *

Assay: Selectivity index, ratio of IC50 for mouse J774A1 cells to MIC for Mycobacterium tuberculosis H37Rv expressing luciferase infected in mouse J774A1 cells
Type: toxicity, cell-based, J774.A1
Conditions: read-out: Selectivity Index
Let's look at some molecules and their measured selectivity ratio.
Attribute measured: selectivity ratio

INSERT INTO results (molecule, attribute_measured, result) VALUES
  ('CCOC(=O)C1CCc2ncc3c(c2C1)C(=O)C1=C(C3=O)C2CCC1CC2 (stereo not drawn)', 'selectivity ratio', 79.3),
  ('CC(C)(C)C1CCc2ncc3c(c2C1)C(=O)C1=C(C3=O)C2CCC1C2 (stereo not drawn)', 'selectivity ratio', 20.7),
  ('CCOC(=O)C1CCc2ncc3c(c2C1)C(=O)C1=C(C3=O)C2CCC1C2 (stereo not drawn)', 'selectivity ratio', 10.8);

* * *

Assay: Cytotoxicity against mouse J774A1 cells assessed as cell viability after 24 hrs by Trypan blue exclusion assay
Format: cell-based
Conditions: J774.A1, 24 h
pIC50: −log10 of the molar value.
Think of 5 as a floor: if pIC50 stands on it or above, it is met; beneath it, not met.

INSERT INTO results (compound, class_label) VALUES
  ('Cc1nc2c(c3c1C(=O)c1ccccc1C3=O)CCC(C)C2 (configuration not stated)', 'not met'),
  ('Cc1nc2c(c3c1C(=O)c1ccccc1C3=O)CCCC2C (configuration not stated)', 'not met'),
  ('Cc1ccc2c3c(cnc2c1)C(=O)c1ccccc1C3=O', 'met'),
  ('CC(C)(C)C1CCc2ncc3c(c2C1)C(=O)C1=C(C3=O)C2CCC1CC2 (configuration not stated)', 'not met'),
  ('CO[C@H]1/C=C/O[C@@]2(C)Oc3c(C)c(O)c4c(O)c(c(/C=N/N5CCN(C)CC5)c(O)c4c3C2=O)NC(=O)/C(C)=C\C=C\[C@H](C)[C@H](O)[C@@H](C)[C@@H](O)[C@@H](C)[C@H](OC(C)=O)[C@@H]1C', 'not met'),
  ('CC(C)(C)C1CCc2ncc3c(c2C1)C(=O)C1=C(C3=O)C2CCC1C2 (configuration not stated)', 'not met'),
  ('CCOC(=O)C1CCc2ncc3c(c2C1)C(=O)C1=C(C3=O)C2CCC1CC2 (configuration not stated)', 'not met'),
  ('NNC(=O)c1ccncc1', 'not met'),
  ('CC(C)(C)C1CCc2ncc3c(c2C1)C(=O)C1=C(C3=O)C2CCC1O2 (configuration not stated)', 'not met'),
  ('CC1CCCc2c1ncc1c2C(=O)c2ccccc2C1=O (configuration not stated)', 'not met'),
  ('CC1CCc2ncc3c(c2C1)C(=O)c1ccccc1C3=O (configuration not stated)', 'met');

* * *

Let's look at some compounds and their measured MIC99.
Tested on: Mycobacterium tuberculosis
Experiment: Antimycobacterial activity against Mycobacterium tuberculosis H37Rv expressing luciferase assessed as growth inhibition after 6 days by luminometry
Assay type: functional
Conditions: 144 h
Attribute measured: MIC99

INSERT INTO results (compound, result) VALUES
  ('CO[C@H]1/C=C/O[C@@]2(C)Oc3c(C)c(O)c4c(O)c(c(/C=N/N5CCN(C)CC5)c(O)c4c3C2=O)NC(=O)/C(C)=C\C=C\[C@H](C)[C@H](O)[C@@H](C)[C@@H](O)[C@@H](C)[C@H](OC(C)=O)[C@@H]1C [RIFAMPIN]', '0.19 µM'),
  ('CC(C)(C)C1CCc2ncc3c(c2C1)C(=O)C1=C(C3=O)C2CCC1CC2 (centres undefined)', '8.56 µM'),
  ('CC(C)(C)OC(=O)N1CCc2ncc3c(c2C1)C(=O)C1=C(C3=O)C2CCC1C2 (centres undefined)', '12.9 µM'),
  ('Cc1nc2c(c3c1C(=O)c1ccccc1C3=O)CCC(C)C2 (centres undefined)', '9.85 µM');

* * *

Test: Selectivity index, ratio of IC50 for mouse J774A1 cells to MIC for Mycobacterium tuberculosis H37Rv expressing luciferase
Type: toxicity, cell-based, J774.A1
Details: read-out: Selectivity Index
Attribute measured: selectivity ratio

INSERT INTO results (compound, attribute_measured, comparison_symbol, number) VALUES
  ('NNC(=O)c1ccncc1 [ISONIAZID]', 'selectivity ratio', '>', 769),
  ('CO[C@H]1/C=C/O[C@@]2(C)Oc3c(C)c(O)c4c(O)c(c(/C=N/N5CCN(C)CC5)c(O)c4c3C2=O)NC(=O)/C(C)=C\C=C\[C@H](C)[C@H](O)[C@@H](C)[C@@H](O)[C@@H](C)[C@H](OC(C)=O)[C@@H]1C [RIFAMPIN]', 'selectivity ratio', '>', 526),
  ('CC(C)(C)OC(=O)N1CCc2ncc3c(c2C1)C(=O)C1=C(C3=O)C2CCC1C2 (stereo not given)', 'selectivity ratio', '=', 0.57),
  ('CCOC(=O)C1CCc2ncc3c(c2C1)C(=O)C1=C(C3=O)C2CCC1CC2 (stereo not given)', 'selectivity ratio', '=', 191),
  ('Cc1nc2c(c3c1C(=O)c1ccccc1C3=O)CCCC2', 'selectivity ratio', '=', 0.61);

* * *

Test: Cytotoxicity against mouse J774A1 cells assessed as cell viability after 24 hrs by Trypan blue exclusion assay
Assay type: cell-based
Details: J774.A1, 24 h
Let's look at some molecules and their measured IC50.
Attribute measured: IC50 (µM)

INSERT INTO results (molecule, attribute_measured, number) VALUES
  ('CCOC(=O)C1CCc2ncc3c(c2C1)C(=O)C1=C(C3=O)C2CCC1C2 (stereo unspecified)', 'IC50', 8.49),
  ('CC(C)(C)C1CCc2ncc3c(c2C1)C(=O)c1ccccc1C3=O (stereo unspecified)', 'IC50', 11.5),
  ('CC1CCc2c(ncc3c2C(=O)c2ccccc2C3=O)C1 (stereo unspecified)', 'IC50', 8.13),
  ('O=C1c2ccccc2C(=O)c2c1cnc1c2CCCC1', 'IC50', 7.34),
  ('CC(C)(C)OC(=O)N1CCc2ncc3c(c2C1)C(=O)C1=C(C3=O)C2CCC1C2 (stereo unspecified)', 'IC50', 7.33),
  ('Cc1nc2c(c3c1C(=O)c1ccccc1C3=O)CCCC2', 'IC50', 10.9);
